B1: E3 ubiquitin-protein ligase Midline-1, residues 172 to 214; numbered along this chain, O15344 (parent)
chain: GLMCLEHEDEKVNMYCVTDDQLICALCKLVGRHRDHQVAALSE

Variants of: B1
Run description: abundance fitness (aPCA) (normalised: wild type 0, dead -1); higher = more abundant; growth selection in yeast, the domain comes from the species named
Study conditions: Homo sapiens
Quick reference for abundance fitness among some variants
Please give the numeric answer without any surrounding text.

Example entries begin here.
Variant label	Result type	Experimental value
L41F	abundance fitness	-0.132
E8A	abundance fitness	0.179

Note abundance fitness for the variant shown: "V38K"
-0.209

Note abundance fitness for the variant shown: "M14H"
-0.112
